Biological target: his-labeled human IL-13 (immunogen A) (human) (UniProt P35225)
Assay: SPR (Biacore), antibody captured by anti-human Fc, immunogen A as analyte
metric name: kon (M⁻¹ s⁻¹)
Use M⁻¹ s⁻¹ as the unit, but write only the number.

Item c28A2E11 (mouse-human chimeric IL-13 antibody) (antibody, V domains shown) VH: EVQLQQSGAELVKPGASVKLSCTASGFNIKDYYMHWVKQRTEQGLEWIGRIDPEDGETKYAPKFHDKATLTADTSSNTAYLQFSSLASEDTAVYYCTRYDYYGPFAYWGQGTLVTVSA VL: QAVVTQESVLTTSPGETVTLTCRSSTGAVTTSNYANWVQEKPDHLFTGLIGGTNNRAPGVPARFSGSLIGDKAALTITGAQTEDEAIYFCALWYINHFIFGSGTKVTVL : provide kon
549000
